Test system: Bel-7402
Test: Antitumor activity against human Bel7402 cells by MTT assay
Format: functional, cell-based
Measure Name: IC50 (µg/mL)

>>> value_measured("N#C/C(=C\\c1cc(O)c(O)c([N+](=O)[O-])c1)C(=O)N(c1ccccc1)c1ccccc1")
56.2
>>> value_measured("N#C/C(=C\\c1cc(O)c(O)c([N+](=O)[O-])c1)C(=O)Nc1ccccc1Cl")
24
>>> value_measured("N#C/C(=C\\c1cc(O)c(O)c([N+](=O)[O-])c1)C(=O)Nc1cccc(Cl)c1")
40.1
>>> value_measured("COc1cc(/C=C(\\C#N)C(=O)Nc2cccc(Cl)c2)cc([N+](=O)[O-])c1O")
21.1
>>> value_measured("COc1c(O)ccc(/C=C(\\C#N)C(=O)Nc2cccc(Cl)c2)c1[N+](=O)[O-]")
65.3

---

Target: Acetylcholinesterase (Homo sapiens)
Test: Inhibition of acetylcholinesterase at 25 uM
# key: entry, value: inhibition
Measure Name: inhibition (%)

>>> value_measured("N#C/C(=C\\c1cc(O)c(O)c([N+](=O)[O-])c1)C(=O)N1CCCCC1")
0.27
>>> value_measured("N#C/C(=C\\c1cc(O)c(O)c([N+](=O)[O-])c1)C(N)=O")
1.09
>>> value_measured("Cc1cccc(NC(=O)/C(C#N)=C/c2cc(O)c(O)c([N+](=O)[O-])c2)c1")
2.73
>>> value_measured("N#C/C(=C\\c1cc(O)c(O)c([N+](=O)[O-])c1)C(=O)N(c1ccccc1)c1ccccc1")
7.38
>>> value_measured("COc1c(O)ccc(/C=C(\\C#N)C(=O)Nc2cccc(Cl)c2)c1[N+](=O)[O-]")
2.19
>>> value_measured("COc1cc(/C=C(\\C#N)C(=O)Nc2cccc(Cl)c2)cc([N+](=O)[O-])c1O")
1.64
